Experiment: Pseudomonas biofilm growth suppression – PAO1 strain, BacTiter-Glo luminescence, LB-PBS, primary screen (AID 1144)
Conditions: P. aeruginosa PAO1 biofilm, 12 h, higher = more signal
Activity calls are given as the source filed them. No rule for the calls is given here.
MEASURED_PROPERTY: z-score

[Q] Can you look up the measured z-score of "COc1ccc([Si](C)(C)[C@H]2[C@H](CC(=O)N3CCC[C@H]3CO)O[C@@]3(C(=O)N(Cc4ccc(N5C(=O)c6cccc7cccc5c67)cc4)c4ccccc43)[C@@H]2C)cc1" for me?
[A] 0.0403 (inactive)

[Q] Find the recorded z-score belonging to "CN(C)CCCCCCNC(=O)[C@@H]1C[C@@H]2C(=O)NCC(=O)N2[C@@H]1c1ccc(O)cc1" and report it.
[A] -0.162 (inactive)

[Q] For "C[N+](C)(C)CCCCCCNC(=O)[C@H]1C[C@H]2C(=O)N3CCC[C@H]3C(=O)N2[C@H]1c1cccc(OCCO)c1" , what is its reported z-score?
[A] 0.236 (inactive)

[Q] Please look up its z-score: "O=C1O[C@H](c2ccccc2)[C@H](c2ccccc2)N2[C@H]1[C@@H](C(=O)N1CCCCCCC1)[C@]1(C(=O)Nc3ccc(C#CCCO)cc31)[C@H]2c1ccc(OCCO)cc1"
[A] 0.278 (inactive)

[Q] I have this molecule here, "CO[C@H]1O[C@H](CO)[C@@H](OC(=O)Nc2ccc(C(F)(F)F)cc2)[C@H](OC(=O)Nc2ccccc2)[C@H]1OC(=O)Nc1ccccc1" , and I need its recorded z-score.
[A] -0.109 (inactive)

Field: next molecule
[Q] Query (molecule): "CCOC(=O)C[C@H]1[C@H](OC(=O)Cc2ccc3c(c2)OCO3)[C@@H](NC(=O)c2ccccc2)c2cc(OCCCO)ccc2N1C(=O)c1ccccc1" ; field requested: z-score
[A] -0.669 (inactive)

----------
Tested on: glycogen synthase kinase-3 (GSK3A per assay name; protocol says GSK3B)
Test: compounds binding glycogen synthase kinase-3 – biochemical, small-molecule microarray, 635 nm fluorescence, GSK3A, primary screen (AID 1103); also: the record names both GSK3A and GSK3B
Conditions: fluorescence 635 nm, higher = more signal
Label rule, in plain words: composite z-score of 0.02 and up is TRUE, under 0.02 is FALSE.

// below: answered compounds
[Q] Hi team, for "CC(C)NC(=O)[C@@]1(Cc2ccccc2I)c2ccccc2C(=O)N(Cc2ccccc2C(F)(F)F)[C@H]1c1ccc(CO)cc1" , is the recorded composite z-score at or above 0.02?
[A] TRUE

[Q] Hi team, for "CC(=O)NCCCC[C@@H]1NC(=O)[C@@H]2C[C@H](C(=O)NCCCC[N+](C)(C)C)[C@H](c3cccc(OCCO)c3)N2C1=O" , is the recorded composite z-score at or above 0.02?
[A] FALSE

[Q] composite z-score >= 0.02 for "Cc1ccc(S[C@]2(C(=O)O)CC(=O)N(C3CCCCC3)[C@@H]2c2ccc(CO)cc2)cc1" ?
[A] TRUE

[Q] Hi team, for C=CC[C@@]1(C(=O)NCC(O)CO)N=C(c2ccc(OCCCO)cc2)O[C@@H]1c1ccccc1 (some centres not stated) , is the recorded composite z-score at or above 0.02?
[A] FALSE

[Q] // inclusive: composite z-score at least 0.02? input: "CN(C)C(=O)[C@@]1(CCC(=O)OC(C)(C)C)COC(c2ccc(OCCCO)cc2)=N1"
[A] FALSE

---
[Q] Test whether the compound "C=CCN1C(=O)[C@@]2(O[C@@H](CCn3cc([C@H](O)c4ccccc4)nn3)[C@H]([Si](C)(C)c3ccc(OC)cc3)[C@H]2C)c2cc(NC(=O)c3ccc(OC)cc3)ccc21" records composite z-score of 0.02 or higher.
[A] TRUE

[Q] # check: composite z-score of CCN(CC)c1ccc(N2CC=CC34O[C@@H]5/C=C\CCCOC(=O)C5[C@H]3C(=O)N(CCCCCCO)[C@@H]4C2=O)cc1 (some centres not stated) is greater than or equal to 0.02
[A] FALSE
